System: AMARE
Assay: Post-emergence herbicidal action against AMARE
Format: in vivo, Amaranthus retroflexus
Conditions: Amaranthus retroflexus, 504 h, 20 g/ha, visual assessment about 3 weeks after treatment, 100% = plants have died, 0% = like control plants
Description: Seeds of monocotyledonous and dicotyledonous weed and crop plants are laid out in sandy loam soil in wood-fiber pots, covered with soil and cultivated in a greenhouse under good growth conditions. 2 to 3 weeks after sowing, the test plants are treated at the one-leaf stage. […]
Hi there, I'd appreciate the recorded pest or weed control at 20 g/ha for every entry that follows.
The reply should consist of the numeric value with the unit placed after it.

CNC(=O)c1c(OC)ccc(C(=O)Nc2nnnn2C)c1Cl [Example 1-354]	100%
CSc1c(C(=O)Nc2nnnn2C)ccc(C(F)(F)F)c1C(=O)NC1CC1 [Example 1-83]	100%
Cn1nnnc1NC(=O)c1ccc(C(F)F)c(C(=O)Nc2ccccc2)c1Cl [Example 1-161]	90%
Cn1nnnc1NC(=O)c1ccc(C(F)(F)F)c(C(N)=O)c1Cl [Example 1-338]	90%
CNC(=O)c1c(Br)ccc(C(=O)Nc2nnnn2C)c1Br [Example 1-342]	100%
CCn1nnnc1NC(=O)c1ccc(Cl)c(C(=O)NC2CC2)c1Cl [Example 2-173]	100%
CCCNC(=O)c1c(C(F)F)ccc(C(=O)Nc2nnnn2C)c1C [Example 1-345]	100%
CCNC(=O)c1c(C(F)F)ccc(C(=O)Nc2nnnn2CC)c1Cl [Example 2-148]	90%

Ask: Name the reported pest or weed control at 20 g/ha value associated with the compound CCNC(=O)c1c(C(F)(F)F)ccc(C(=O)Nc2nnnn2C)c1C [Example 1-26]
Reply: 100%

----------
System: DIGSA
Assay: Post-emergence herbicidal action against DIGSA
Format: in vivo, Digitaria sanguinalis
Settings: 20 g/ha
PARAMETER MEASURED: Post-emergence action against DIGSA (%)
Numbers only, in %.

CCn1nnnc1NC(=O)c1ccc(C(F)(F)F)c(C(=O)NCC(F)F)c1C1CC1	100
CCNC(=O)c1c(C(F)(F)F)ccc(C(=O)Nc2nnc(C)o2)c1OC	90
CCc1c(C(=O)Nc2nnnn2CC)ccc(C(F)F)c1C(=O)NC	90
CCn1nnnc1NC(=O)c1ccc(C(F)(F)F)c(C(=O)NCC(F)F)c1Cl	80
Cc1nnc(NC(=O)c2ccc(C(F)F)c(C(=O)NC3CCC3)c2Cl)o1	90

Please give Post-emergence action against DIGSA for each item listed below.
1. CCc1c(C(=O)Nc2nnc(C)o2)ccc(C(F)(F)F)c1C(=O)NC
2. CCNC(=O)c1c(C(F)F)ccc(C(=O)Nc2nnc(C)o2)c1Br

Reply:
1: 90; 2: 90

Please give Post-emergence action against DIGSA for each item listed below.
1. Cc1nnc(NC(=O)c2ccc(C(F)(F)F)c(C(=O)NC3CC3)c2Cl)o1
2. Cc1nnc(NC(=O)c2ccc(C(F)F)c(C(=O)NC(C)C3CC3)c2C)o1 (stereo not drawn)

Reply:
1: 100; 2: 90

----------
Test system: VIOTR
Assay: Pre-emergence herbicidal action against VIOTR
Assay type: in vivo, Viola tricolor
Conditions: dosage 20 g/ha
PARAMETER MEASURED: Pre-emergence action against VIOTR in %
The reply should consist of the numeric value with the unit placed after it.

Example results:
Cc1c(C(=O)Nc2nnnn2C)ccc(C(F)(F)F)c1C(=O)NC(C)C1CC1 (stereo not drawn)	100%
CCn1nnnc1NC(=O)c1ccc(C(F)(F)F)c(C(=O)NC(C)C2CC2)c1C1CC1 (stereo not drawn)	100%
CCn1nnnc1NC(=O)c1ccc(C(F)(F)F)c(C(=O)NCCOC)c1Cl	90%
CC(NC(=O)c1c(C(F)F)ccc(C(=O)Nc2nnnn2C)c1Br)C1CC1 (stereo not drawn)	100%
CCc1c(C(=O)Nc2nnnn2CC)ccc(C(F)F)c1C(=O)NC	100%

Please give Pre-emergence action against VIOTR in % for each item listed below.
1. CNC(=O)c1c(C(F)F)ccc(C(=O)Nc2nnco2)c1Cl
2. CCn1nnnc1NC(=O)c1ccc(C(F)(F)F)c(C(=O)NCC2CC2)c1SC

Reply:
["80%", "80%"]
